assay: Leishmania major promastigote growth inhibition, primary screen (AID 1063); conditions: Leishmania major promastigotes, resazurin fluorescence viability; at 10 µM; hits give high values;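 also: promastigotes grown with compound for 44 hours at 28 °C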
The whole screen tested about 200,000 compounds, of which about 18,000 (9%) were called active. Many of the other results were omitted from the sample, so actives are more common in it than they were.
Assignment: determine reported inhibition for the given compounds.
Give bare numbers, in %.

Recorded inhibition, per entry:
> print(dat)
                                 cpd.smiles  number
1  CC(=O)Nc1cccc(/C(C)=N/NC(=O)c2c(-c3ccccc3Cl)noc2C)c1     3.3
2              N#Cc1cccc(NC(=O)CCC2CCCC2)c1    5.79

Look up inhibition for this compound: `CCCCCOc1ccc(CSC2=NCCN2)cc1[N+](=O)[O-]`
88.3

---

assay: Leishmania major promastigote growth inhibition, primary screen (AID 1063); details: Leishmania major promastigotes, resazurin fluorescence viability; at 10 µM; hits give high values;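 also: promastigotes grown with compound for 44 hours at 28 °C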
Among all 200,000 compounds or so, about 18,000 (9%) were called active. This is one part of a sample in which actives are shown more often than they occur.
Assignment: determine reported inhibition for the given compounds.

> print(dat)
                                 cpd.smiles             result
1  Cc1ccc2[nH]c(=O)c(CN3CCCCC3)c(-c3ccccc3)c2c1   6.53% (inactive)
2  Cc1cccc(N2CCN(c3ccc(C(N)=O)cc3[N+](=O)[O-])CC2)c1C   2.25% (inactive)
3  CCOC(=O)N1CCN(C(=O)c2nn(-c3ccc(C)cc3)c(=O)c3c2c2ccccc2n3C)CC1  -5.83% (inactive)
4     COc1cc(/C=N/NC(=S)Nc2cccnc2)cc(OC)c1O  -1.76% (inactive)

Look up inhibition for this compound: `CC(=O)NCCC(=O)Nc1nc(C)c(Cc2ccc3c(c2)OCO3)s1`
55.9% (active)

---

test: Leishmania major promastigote growth inhibition, primary screen (AID 1063); conditions: Leishmania major promastigotes, resazurin fluorescence viability; at 10 µM;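 also: promastigotes grown with compound for 44 hours at 28 °C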
The campaign covered roughly 200,000 compounds. About 18,000 (9%) were called active. No stated cut-off is given here; in the data, active means inhibition above about 50%; inactive means the rest. This is one part of a sample in which actives are shown more often than they occur.
Return exactly one item of t for active, f for inactive

> print(dat)
                                   compound  qualitative.label
1  Cc1ccc(-c2csc(N(Cc3ccco3)C(=O)c3cccs3)n2)cc1                  t

Record lookup: outcome of this test for `Cc1ccc(F)cc1NC(=O)Cc1nn(C)c(=O)c2ccccc12` ?
f

Record lookup: outcome of this test for `N=c1n(CCc2ccccc2)c2ccccc2n1Cc1ccccc1F` ?
t

Record lookup: outcome of this test for Cc1c(Br)c([N+](=O)[O-])nn1CC(=O)Nc1sc2c(c1C(=O)OC(C)C)CCC(C)C2 (stereo not given) ?
f

---

assay: Leishmania major promastigote growth inhibition, primary screen (AID 1063); settings: Leishmania major promastigotes, resazurin fluorescence viability; at 10 µM; hits give high values;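 also: promastigotes grown with compound for 44 hours at 28 °C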
About 18,000 (9%) of roughly 200,000 compounds were called active. The sample holds actives, similar compounds and a random draw of the others, so the mix is not that of the screen.
MEASURED_ATTRIBUTE: inhibition

> print(dat)
                                   molecule  measured.attribute             result
1  CCN(Cc1ccccc1)S(=O)(=O)c1cc(C(=O)O)ccc1OC          inhibition  -8.56% (inactive)
2  CC1CC(C)CN(CC(=O)N2c3ccccc3CCc3ccccc32)C1 (stereo unspecified)          inhibition   18.5% (inactive)

For every listed record, write down its inhibition.
1. CCCCC(CCC(=O)Nc1ccc(C(=O)OCC)cc1)C(=O)O (stereo unspecified)
2. Cc1cccc(Nc2nc3c(S(=O)(=O)c4ccccc4)nnn3c3ccccc23)c1C
3. O=C(/C=C/c1ccco1)Nc1ccc(Oc2ccccc2)cc1
4. CN(Cc1ccccc1)Cc1ccccc1F
5. O=C(Cc1ccccc1)NNC(=O)C1CCN(c2ncccn2)CC1
6. OCCC1CN(Cc2ccc3nsnc3c2)CCN1C1CCCC1 (stereo unspecified)

["-9.84% (inactive)", "57.1% (active)", "99.6% (active)", "-3.21% (inactive)", "-9.12% (inactive)", "20.1% (inactive)"]

For every listed record, write down its inhibition.
1. COc1ccc(/C=C/C(=O)c2cc(Br)ccc(=O)c2O)cc1
2. O=C(CCc1ccccc1)NCc1cccnc1
3. Cc1ccc(-c2csc(NC(=O)c3cccs3)n2)cc1

1. -3.91% (inactive)
2. -1.64% (inactive)
3. 3.66% (inactive)
